All values here come from PubChem BioAssay AID2060884.

System: NCI-H929 complex spheroids, viability % test/control
Assay: Anticancer human tumor NCI-H929 cell line growth inhibition [RAS]; active = viability on the fitted dose curve at most 10% of control; inactive = the rest;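 note: compound exposure lasted seven days before viability was read; 100% = DMSO vehicle control viability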
Details: second compound 0.00316 µM; first compound 0.316 µM
Text: RAS pathway inhibitors in Combinations in Complex Spheroids A high-throughput screen of multi-cell type tumor spheroids was designed to identify active combinations of RAS pathway inhibitors and targeted small molecules. Complex spheroids include a stromal component modeled by human endothelial cells (HUVEC) and fibroblasts modeled by human mesenchymal stem cells (MSCs). […] Compounds. […] If the clinical Cmax for an agent had not been determined, the highest concentration tested was 10 microM. […]
Give one outcome, nothing more. List: 1 (yes) = active, 0 (no) = inactive

Solved cases below.
compound	cat
NC1c2ccccc2OC12CCN(c1cnc3c(N4CCCc5ncccc54)n[nH]c3n1)CC2 (stereo not given) + C=CC(=O)N1CCN(c2nc(OCC3CCCN3C)nc3c(F)c(-c4nc(N)cc(C)c4C(F)(F)F)c(Cl)cc23)C(C)C1	0 (no)
O=C(c1ccc(F)c(F)c1Nc1ccc(I)cc1F)N1CC(O)([C@@H]2CCCCN2)C1 + C=CC(=O)N1CCN(c2nc(OCC3CCCN3C)nc3c(F)c(-c4nc(N)cc(C)c4C(F)(F)F)c(Cl)cc23)C(C)C1	0 (no)
C=CC(=O)Nc1cc(Nc2nccc(-c3cn(C)c4ccccc34)n2)c(OC)cc1N(C)CCN(C)C + C=CC(=O)N1CCN(c2nc(OCC3CCCN3C)nc3c(F)c(-c4nc(N)cc(C)c4C(F)(F)F)c(Cl)cc23)C(C)C1	0 (no)
CC1(O)CCCC1n1c(=O)c(C(F)F)cc2cnc(NC3CCN(S(C)(=O)=O)CC3)nc21 (stereo not given) + C=CC(=O)N1CCN(c2nc(OCC3CCCN3C)nc3c(F)c(-c4nc(N)cc(C)c4C(F)(F)F)c(Cl)cc23)C(C)C1	1 (yes)

Request: Short answer needed: outcome of this test for CCC(CC)c1cc(NC2CCC(N)C2)n2nccc2n1 (stereo not given) + C=CC(=O)N1CCN(c2nc(OCC3CCCN3C)nc3c(F)c(-c4nc(N)cc(C)c4C(F)(F)F)c(Cl)cc23)C(C)C1 ?
Response: 0 (no)

---

Tested on: NCI-H929 complex spheroids, viability % test/control
Experiment: Anticancer human tumor NCI-H929 cell line growth inhibition [RAS]; active = viability on the fitted dose curve at most 10% of control; inactive = the rest;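 note: compound exposure lasted seven days before viability was read; 100% = DMSO vehicle control viability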
Settings: second compound 0.0949 µM; first compound 0.316 µM
Give one outcome, nothing more. List: active, inactive

molecule	cat
C=CC(=O)N1CCN(c2nc(OCC3CCCN3C)nc3c(F)c(-c4nc(N)cc(C)c4C(F)(F)F)c(Cl)cc23)C(C)C1 (configuration not stated) + CCn1c(-c2cccnc2C(C)OC)c2c3cc(ccc31)N1CCOC(CC(NC(=O)C(C(C)C)N(C)C(=O)C3(F)CCN(C(=O)C#CC(C)(C)N(C)C)CC3)C(=O)N3CCCC(N3)C(=O)OCC(C)(C)C2)C1	inactive

Request: Short answer needed: outcome of this test for CCN1CCN(Cc2ccc(Nc3ncc(F)c(-c4cc(F)c5nc(C)n(C(C)C)c5c4)n3)nc2)CC1 + CCn1c(-c2cccnc2C(C)OC)c2c3cc(ccc31)N1CCOC(CC(NC(=O)C(C(C)C)N(C)C(=O)C3(F)CCN(C(=O)C#CC(C)(C)N(C)C)CC3)C(=O)N3CCCC(N3)C(=O)OCC(C)(C)C2)C1 ?
Response: inactive

Request: Short answer needed: outcome of this test for CC(=O)OC12COC1CC(O)C1(C)C(=O)C(O)C3=C(C)C(OC(=O)C(O)C(NC(=O)OC(C)(C)C)c4ccccc4)CC(O)(C(OC(=O)c4ccccc4)C21)C3(C)C (configuration not stated) + CCn1c(-c2cccnc2C(C)OC)c2c3cc(ccc31)N1CCOC(CC(NC(=O)C(C(C)C)N(C)C(=O)C3(F)CCN(C(=O)C#CC(C)(C)N(C)C)CC3)C(=O)N3CCCC(N3)C(=O)OCC(C)(C)C2)C1 ?
Response: active

Request: Short answer needed: outcome of this test for CCN1CCN(Cc2ccc(Nc3ncc(F)c(-c4cc(F)c5nc(C)n(C(C)C)c5c4)n3)nc2)CC1 + CCn1c(-c2cc(N3CCN(C)CC3)cnc2C(C)OC)c2c3cc(ccc31)-c1csc(n1)CC(NC(=O)C1CC1C)C(=O)N1CCCC(N1)C(=O)OCC(C)(C)C2 ?
Response: active

Request: Short answer needed: outcome of this test for NC1c2ccccc2OC12CCN(c1cnc3c(N4CCCc5ncccc54)n[nH]c3n1)CC2 (configuration not stated) + CCn1c(-c2cc(N3CCN(C)CC3)cnc2C(C)OC)c2c3cc(ccc31)-c1csc(n1)CC(NC(=O)C1CC1C)C(=O)N1CCCC(N1)C(=O)OCC(C)(C)C2 ?
Response: active

Request: Short answer needed: outcome of this test for C=CC(=O)N1CCN(c2nc(OCC3CCCN3C)nc3c(F)c(-c4nc(N)cc(C)c4C(F)(F)F)c(Cl)cc23)C(C)C1 (configuration not stated) + CCn1c(-c2cc(N3CCN(C)CC3)cnc2C(C)OC)c2c3cc(ccc31)-c1csc(n1)CC(NC(=O)C1CC1C)C(=O)N1CCCC(N1)C(=O)OCC(C)(C)C2 ?
Response: active

Request: Short answer needed: outcome of this test for C=CC(=O)Nc1cc(Nc2nccc(-c3cn(C)c4ccccc34)n2)c(OC)cc1N(C)CCN(C)C + CCn1c(-c2cccnc2C(C)OC)c2c3cc(ccc31)N1CCOC(CC(NC(=O)C(C(C)C)N(C)C(=O)C3(F)CCN(C(=O)C#CC(C)(C)N(C)C)CC3)C(=O)N3CCCC(N3)C(=O)OCC(C)(C)C2)C1 ?
Response: inactive
